B1: Osa-1-4 twister ribozyme (parent)
chain: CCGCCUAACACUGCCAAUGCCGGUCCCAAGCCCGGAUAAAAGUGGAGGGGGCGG

# Variants of: B1
# assayExplanation: self-cleavage, relative activity (ratio to wild type); higher = more cleavage; co-transcriptional
self-cleavage reference
Please give the numeric answer without any surrounding text.

primarySequence	self-cleavage
CCGCCUAACACUGCCAAUGCGGGUCCCAACCCCGGAUAAAAGUGGAGGGGGCGG	0.02
CCGCCUAACACUGCCAAUGCCGGUCCCAGGCGCGGAUAAAAGUGGAGGGGGCGG	0.07
CCGCCUCACACUGCAAAUGCCGGUCCCAAGCCCGGAUAAAAGUGGAGGGGGCGG	0.04
CCGCCUAACACUGCCAAUGCCGGUCCCAAGCCCGGAUCAAAGUGGAGAGGGCGG	0.09

INPUT: Give the reported self-cleavage for this variant. CCGCCUAACACUGCCAAGGCCGGUCCCAAGCCGGGAUAAAAGUGGAGGGGGCGG
OUTPUT: 0.08

INPUT: Give the reported self-cleavage for this variant. CCGCCUAACACUGCCAACGCCGGUCCCAAGCCCGGAUAAAAGCGGAGGGGGCGG
OUTPUT: 0.35

INPUT: Give the reported self-cleavage for this variant. CCGCCUAACCCUGCCGAUGCCGGUCCCAAGCCCGGAUAAAAGUGGAGGGGGCGG
OUTPUT: 0.14

INPUT: Give the reported self-cleavage for this variant. CCGCCUAACACUGCCAAUGCCGGUCCCAACCCCGGAUAAAAGUGGAGGGGGCCG
OUTPUT: 0.02

INPUT: Give the reported self-cleavage for this variant. CCGCCUAACACUGCCAAUGCCGGUCCCAAGCCCGGAUAAAUGUGGAGGGGGCAG
OUTPUT: 0.89

INPUT: Give the reported self-cleavage for this variant. CCGCCUAACACUGCCAAUGCCGGUCUCAAGCCCGGAUAAAUGUGGAGGGGGCGG
OUTPUT: 0.93

Data origin, for the record: the RNAGym collection of RNA variant scans (doi:10.1002/anie.201605470)
